- system: human Cot catalytic domain (30-397 amino acids) (Homo sapiens)
- Construct: Purified recombinant human Cot catalytic domain (30-397 amino acids) was purchased from Cama Biosciences; purchased Cama Biosciences (so in the source)
- Sequence (P41279 30-397): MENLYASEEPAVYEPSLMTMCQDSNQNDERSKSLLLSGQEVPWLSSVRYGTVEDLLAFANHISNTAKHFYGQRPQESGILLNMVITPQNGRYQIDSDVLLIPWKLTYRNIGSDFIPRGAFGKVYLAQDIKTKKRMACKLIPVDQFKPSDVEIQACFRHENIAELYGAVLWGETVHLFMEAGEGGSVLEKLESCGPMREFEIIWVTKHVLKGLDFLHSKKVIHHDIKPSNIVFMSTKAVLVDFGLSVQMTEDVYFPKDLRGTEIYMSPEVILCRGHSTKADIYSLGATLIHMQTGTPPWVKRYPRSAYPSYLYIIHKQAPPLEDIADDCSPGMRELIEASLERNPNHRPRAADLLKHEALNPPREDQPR
- test_method_notes: High Throughput Cot Biochemical Assay (KinEASE TR-FRET)
- conditions_used: Cot biochemical HTRF (KinEASE TR-FRET) assay; read-out: IC50 HTRF
property_label: IC50 (nM)

compound=CCOc1ccc(Nc2c(C#N)cnc3c(Cl)cc(N[C@@H](c4ccc(Cl)cc4)c4cn(C5CCN(C(C)(C)C)CC5)nn4)cc23)cc1Cl measured_result=324
compound=N#Cc1cnc2c(Cl)cc(N[C@@H](c3ccc(F)cc3)c3cn(C4CC4)nn3)cc2c1Nc1cnc(F)c(Cl)c1 measured_result=4
compound=Cn1cc(Nc2c(C#N)cnc3c(Cl)cc(N[C@@H](c4ccccc4)c4cn(C5CCN(C(C)(C)C)CC5)nn4)cc23)ccc1=O measured_result=371
compound=C[Si](C)(C)Cn1cc([C@@H](Nc2cc(Cl)c3ncc(C#N)c(Nc4cnc(F)c(F)c4)c3c2)c2ccccc2F)nn1 measured_result=96
compound=CC[C@@H](Nc1c(C#N)cnc2c(Cl)cc(N[C@@H](c3ccccc3)c3cn(C(C)C)nn3)cc12)c1ccccc1 measured_result=7

I = CC(C)(C)N1CCC(n2cc([C@@H](Nc3cc(Cl)c4ncc(C#N)c(Nc5ccccc5Cl)c4c3)c3ccc(Cl)cc3)nn2)CC1
II = N#Cc1cnc2c(Cl)cc(N[C@@H](c3ccc(Cl)cc3)c3cn(C4COC4)nn3)cc2c1Nc1cnc(F)c(F)c1
III = N#Cc1cnc2c(Cl)cc(N[C@H](c3c[nH]nn3)c3cccc(F)c3F)cc2c1Nc1cnc(F)c(F)c1
IV = CC(C)(C)N1CCC(n2cc([C@@H](Nc3cc(Cl)c4ncc(C#N)c(Nc5ccc(F)c(Cl)c5)c4c3)c3cccc(N4CCCC4=O)c3)nn2)CC1
V = CN(C)CCn1cc([C@@H](Nc2cc(Cl)c3ncc(C#N)c(Nc4ccc(F)c(Cl)c4)c3c2)c2ccccc2)nn1
[ask] Order the items by recorded IC50; the first position goes to the largest value. Form entry: ranked labels (order as requested).
[reply] I, II, III, V, IV
